B1: glmS ribozyme (parent)
chain: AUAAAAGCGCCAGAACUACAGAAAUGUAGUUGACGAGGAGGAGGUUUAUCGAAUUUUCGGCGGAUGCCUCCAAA

- Variants of: B1
- PROTOCOL: self-cleavage kobs at 10000 uM GlcN6P; higher = faster cleavage; RNA array
- ASSAY_SETUP: with glucosamine-6-phosphate
Fewer inactive variants are shown than the library holds.
Attribute: self-cleavage kobs at 10000 uM GlcN6P
Your answer is read as s⁻¹, so omit the unit and give the number.

Some variants with recorded self-cleavage kobs at 10000 uM GlcN6P:
# MUTATIONS, OBSERVATION_TYPE, UNIT_SPEC, VALUE_MEASURED
data = [
    ("U47C C58A", "self-cleavage kobs at 10000 uM GlcN6P", "s⁻¹", 0.000244),
    ("U65G C67U", "self-cleavage kobs at 10000 uM GlcN6P", "s⁻¹", 0.00248),
]

Lab note: next variant to report on.
Sample A12U U47C ; self-cleavage kobs at 10000 uM GlcN6P observed: 0.00873

Data provenance: the supplement of paper PMC7125110
